# EXPERIMENT_SUMMARY: Viability of stressor-treated cells by dye exclusion 24 h after treatment
# Type: cell-based
# EXPERIMENTAL_CONDITIONS: mouse; 661W cells; 1 μM A23187; incubated 24 h; ethidium bromide/acridine orange
EXPERIMENTAL_ENDPOINT: viability at 24 h, 1 μM (%)
Express your answer in %, writing the number without its unit.

Entry CNc1ccc2oc(C[C@H]3O[C@@]4(CC[C@H]3C)O[C@H]([C@H](C)C(=O)c3ccc[nH]3)[C@H](C)C[C@H]4C)nc2c1C(=O)O ; viability at 24 h, 1 μM = 47
